Target: chimeric BTLA of humanised-BTLA mice (human extracellular region, murine transmembrane and signaling … (human; mouse, UniProt Q7TSA3 184-306, limits assumed); note: test concentration or dose not given here
Sequence (Q7TSA3 other isoform, or with tags, fused parts or gaps mutant limits assumed): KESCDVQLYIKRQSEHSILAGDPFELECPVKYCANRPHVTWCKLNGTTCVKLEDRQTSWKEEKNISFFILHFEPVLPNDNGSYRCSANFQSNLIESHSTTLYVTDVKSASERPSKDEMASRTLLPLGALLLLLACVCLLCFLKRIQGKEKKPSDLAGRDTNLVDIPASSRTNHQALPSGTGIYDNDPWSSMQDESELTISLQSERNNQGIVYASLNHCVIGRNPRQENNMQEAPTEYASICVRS
Assay: cell-based or functional assay
observable: AntiCD3/CD28 (CD69+ CD4 T cells) repeat 1 (% inhibition)
Give bare numbers, in % inhibition.

* 8B4 (antibody, IgG1, V domains shown, mIgG1) VH: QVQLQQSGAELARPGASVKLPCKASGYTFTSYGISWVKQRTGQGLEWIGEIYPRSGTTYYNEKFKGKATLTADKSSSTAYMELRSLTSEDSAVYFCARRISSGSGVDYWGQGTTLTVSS VL: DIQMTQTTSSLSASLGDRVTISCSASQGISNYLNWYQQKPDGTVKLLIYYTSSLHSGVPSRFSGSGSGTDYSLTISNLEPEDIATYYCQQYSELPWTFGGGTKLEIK | 51

Note: attention shifts to another entry.
Ask: For the binder 2.8.6 (antibody, V domains shown, mouse IgG1k hybridoma antibody; also called clone 2.8.6) VH: QVQLKESGPGLVAPSQSLSITCTVSGFSLTTYGVHWVRQSPGKGLEWLGVMWPGGRTSYNPAPMSRLSISKDNSKSQVFLKMNSLQTDDTAMYYCVRGDYEYDYYAMDYWGQGTSVTVSS VL: QIVLSQSPAILSASPGEKVTMTCRASSSVSYMHWYQQKPGSSPKPWIYATSNLASGVPARFSGSGSGTSYSLTISRMEAEDAATYYCHQWSSNPYTFGGGTKLEIK , report AntiCD3/CD28 (CD69+ CD4 T cells) repeat 1.
Result: 58
